Data provenance is patent US20250230193A1.

Tested on: human lung cancer strain NCI-H441
method summary: cells
assay setup: NCI-H441, 96 h, read-out: NCI-H441 IC50 (nM)
Criterion: IC50 strictly less than 60 nM. Met: satisfied. Not met: not satisfied.

Example entries and their recorded answers appear below.
CCO[C@@H]1C[C@H]2C(=O)NC3(CCC3)C(=O)N(C)[C@@H](C3CCCC3)C(=O)N(C)[C@H](C(=O)N(C)CC)CC(=O)N(C)[C@@H](CC3CCCC3)C(=O)N[C@@H]([C@@H](C)CC)C(=O)N(C)CC(=O)N(C)[C@H]3C/C=C\CCN(C3=O)[C@@H](Cc3ccc(C(F)(F)F)cc3)C(=O)N(C)CC(=O)N[C@@H](CCc3ccc(C(F)(F)F)c(OC)c3)C(=O)N2C1    satisfied
CCO[C@@H]1C[C@H]2C(=O)NC3(CCC3)C(=O)N(C)[C@@H](C3CCCC3)C(=O)N(C)[C@H](C)CC(=O)N(C)[C@@H](CC3CC3)C(=O)N[C@@H]([C@@H](C)CC)C(=O)N(C)CC(=O)N(C)[C@H]3C/C=C\CCN(C3=O)[C@@H](Cc3ccc(F)cc3C)C(=O)N(C)CC(=O)N[C@@H](CCc3cc(F)c(C(F)(F)F)c(F)c3)C(=O)N2C1    not satisfied
CCO[C@@H]1C[C@H]2C(=O)NC3(CCC3)C(=O)N(C)[C@@H](C(CC)CC)C(=O)N(C)[C@H](C)CC(=O)N(C)[C@@H](CC3CCCC3)C(=O)N[C@@H]([C@@H](C)CC)C(=O)N(C)CC(=O)N(C)[C@H]3C/C=C\CCN(C3=O)[C@@H](Cc3ccc(F)cc3)C(=O)N(C)CC(=O)N[C@@H](CCc3cc(F)c(C(F)(F)F)c(F)c3)C(=O)N2C1    not satisfied
CCO[C@@H]1C[C@H]2C(=O)NC3(CCC3)C(=O)N(C)[C@@H](C3CCCC3)C(=O)N(C)[C@H](C(=O)N(C)C)CC(=O)N(C)[C@@H](CC)C(=O)N[C@@H]([C@@H](C)CC)C(=O)N(C)CC(=O)N(C)[C@H]3C/C=C\CCN(C3=O)[C@@H](Cc3ccc(C(F)(F)F)cc3)C(=O)N(C)CC(=O)N[C@@H](CCc3ccc4sccc4c3)C(=O)N2C1    not satisfied
CCO[C@@H]1C[C@H]2C(=O)NC3(CCC3)C(=O)N(C)[C@@H](C(CC)CC)C(=O)N(C)[C@H](C(=O)N3CCCC3)CC(=O)N(C)[C@@H](COC)C(=O)N[C@@H]([C@@H](C)CC)C(=O)N(C)CC(=O)N(C)[C@H]3C/C=C\CCN(C3=O)[C@@H](CC3CCC(F)(F)CC3)C(=O)N(C)CC(=O)N[C@@H](CCc3cc(F)c(C(F)(F)F)c(F)c3)C(=O)N2C1    not satisfied

Input: Is the reported IC50 for CCCOC[C@H]1C(=O)N[C@@H]([C@@H](C)CC)C(=O)N(C)CC(=O)N(C)[C@H]2C/C=C\CCN(C2=O)[C@@H](Cc2ccc(C(F)(F)F)cc2)C(=O)N(C)CC(=O)N[C@@H](CCc2cc(F)c(C(F)(F)F)c(F)c2)C(=O)N2C[C@H](OCC)C[C@H]2C(=O)NC2(CCC2)C(=O)N(C)[C@@H](C2CCCC2)C(=O)N(C)[C@H](C(=O)N(C)CC)CC(=O)N1C strictly below 60 nM?
Output: satisfied

Input: Is the reported IC50 for CCO[C@@H]1C[C@H]2C(=O)NC3(CCC3)C(=O)N(C)[C@@H](C3CCCC3)C(=O)N(C)[C@H](C)CC(=O)N(C)[C@@H](CC3CCCC3)C(=O)N[C@@H]([C@@H](C)CC)C(=O)N(C)CC(=O)N(C)[C@H]3C/C=C\CCN(C3=O)[C@@H](Cc3ccc(F)cc3)C(=O)N(C)CC(=O)N[C@@H](CCc3cc(F)c(C(F)(F)F)c(F)c3)C(=O)N2C1 strictly below 60 nM?
Output: not satisfied

Input: Is the reported IC50 for CCO[C@@H]1C[C@H]2C(=O)NC3(CCOCC3)C(=O)N(C)[C@@H](C3CCCC3)C(=O)N(C)[C@H](C(=O)N(C)C)CC(=O)N(C)[C@@H](CC)C(=O)N[C@@H]([C@@H](C)CC)C(=O)N(C)CC(=O)N(C)[C@H]3C/C=C\CCN(C3=O)[C@@H](Cc3ccc(C(F)(F)F)cc3)C(=O)N(C)CC(=O)N[C@@H](CCc3cc(F)c(C(F)(F)F)c(F)c3)C(=O)N2C1 strictly below 60 nM?
Output: not satisfied

Input: Is the reported IC50 for CCO[C@@H]1C[C@H]2C(=O)NC3(CCC3)C(=O)N(C)[C@@H](C(CC)CC)C(=O)N(C)[C@H](C(=O)N(C)C)CC(=O)N(C)[C@@H](CC)C(=O)N[C@@H]([C@@H](C)CC)C(=O)N(C)CC(=O)N(C)[C@H]3C/C=C\CCN(C3=O)[C@@H](Cc3ccc(C(F)(F)F)cc3)C(=O)N(C)CC(=O)N[C@@H](CCc3ccc(Cl)c(Cl)c3)C(=O)N2C1 strictly below 60 nM?
Output: satisfied

Input: Is the reported IC50 for CCO[C@@H]1C[C@H]2C(=O)NC3(CCC3)C(=O)N(C)[C@@H](C3CCCC3)C(=O)N(C)[C@H](C(=O)N(C)C)CC(=O)N(C)[C@@H](CC(C)C)C(=O)N[C@@H]([C@@H](C)CC)C(=O)N(C)CC(=O)N(C)[C@H]3C/C=C\CCN(C3=O)[C@@H](Cc3ccc(C(F)(F)F)cc3)C(=O)N(C)CC(=O)N[C@@H](CCc3ccc4sccc4c3)C(=O)N2C1 strictly below 60 nM?
Output: satisfied
